Cited source: patent US12492173B2

Tested on: Setaria viridis
Procedure summary: Post-emergence herbicidal action, SETVI
Assay type: in vivo
Set-up: key: % herbicidal action vs untreated; 100 = plants died, 0 = like control
Test parameters: Dosage 80 g/ha
Reported property: herbicidal action SETVI

Compound | Obs value
CSCc1c(C(F)(F)F)ccc(C(=O)Nc2nnnn2C)c1F [Example 1-242] | 90
Cn1nnnc1NC(=O)c1ccc(C(F)(F)F)c(CS(C)(=O)=O)c1F [Example 1-244] | 100
CCn1nnnc1NC(=O)c1ccc(C(F)(F)F)c(CS(=O)(=O)CC)c1Cl [Example 2-301] | 90
CSCc1c(C(F)F)ccc(C(=O)Nc2nnnn2C)c1Cl [Example 1-320] | 100
CCCn1nnnc1NC(=O)c1ccc(C(F)(F)F)c(CSC)c1SC [Example 3-161] | 100
CCCn1nnnc1NC(=O)c1ccc(C(F)F)c(CSCC)c1Cl [Example 3-323] | 100
CCn1nnnc1NC(=O)c1ccc(C(F)(F)F)c(C[S+](C)[O-])c1OC (stereo not drawn) [Example 2-135] | 100
CSCc1c(S(C)(=O)=O)ccc(C(=O)Nc2nnnn2C)c1C [Example 1-37] | 100
CCCn1nnnc1NC(=O)c1ccc(C(F)(F)F)c(C[S+]([O-])CC)c1Br (stereo not drawn) [Example 3-384] | 100

* * *

Measured herbicidal action POLCO of individual entries
Tested on: Polygonum convolvulus
Procedure summary: Post-emergence herbicidal action, POLCO
Assay type: in vivo
Test parameters: post-emergence, dosage 80 g/ha
Description: [table] 2. […] After the test plants have been left to stand in the greenhouse under optimal growth conditions for about 3 weeks, the action of the preparations is assessed visually in comparison to untreated controls (herbicidal action in percent (%): 100% activity=the plants have died, 0% activity=like control plants). […]
Reported property: herbicidal action POLCO (%)

Compound | Unit abbreviation | Obs value
CCSCc1c(C(F)(F)F)ccc(C(=O)Nc2nnnn2C)c1C [Example 1-86] | % | 80
CCSCc1c(C(F)(F)F)ccc(C(=O)Nc2nnnn2CC)c1Br [Example 2-383] | % | 90
CCn1nnnc1NC(=O)c1ccc(C(F)(F)F)c(C[S+]([O-])CC)c1Br (stereo not drawn) [Example 2-384] | % | 80
Cn1nnnc1NC(=O)c1ccc(C(F)(F)F)c(C[S+]([O-])C2CC2)c1Cl (racemic) [Example 1-303] | % | 100
CSCc1c(C(F)(F)F)ccc(C(=O)Nc2nnnn2C)c1Br [Example 1-380] | % | 90
CCSCc1c(C(F)(F)F)ccc(C(=O)Nc2nnnn2CC)c1C [Example 2-86] | % | 100
CCn1nnnc1NC(=O)c1ccc(C(F)(F)F)c(CSC)c1Cl [Example 2-296] | % | 100
CSCc1c(I)ccc(C(=O)Nc2nnnn2C)c1Cl [Example 1-362] | % | 90
Cn1nnnc1NC(=O)c1ccc(C(F)F)c(CS(C)(=O)=O)c1Cl [Example 1-322] | % | 90

* * *

Tested on: Viola tricolor
Procedure summary: Post-emergence herbicidal action, VIOTR
Assay type: in vivo
Parameters: key: % herbicidal action vs untreated; 100 = plants died, 0 = like control
Test parameters: comparative experiment, post-emergence, 5 g of a.i./ha
Could you mark each record 1 (yes) if its Herbicidal action against VIOTR falls strictly under 60, and 0 (no) if it equals or exceeds it?

Compound | Target of assay | Class assignment
COc1c(C(=O)Nc2nnnn2C)ccc(C(F)(F)F)c1CSC | Viola tricolor | 0 (no)
COc1c(C(=O)Nc2nnnn2C)ccc(Cl)c1CS(C)(=O)=O | Viola tricolor | 1 (yes)
CCSCc1c(C(F)(F)F)ccc(C(=O)Nc2nnnn2C)c1SCC | Viola tricolor | 0 (no)
CCSc1c(C(=O)Nc2nnnn2C)ccc(C(F)(F)F)c1SCC [Example V-3, reference compound] | Viola tricolor | 1 (yes)
CSCc1c(C(F)(F)F)ccc(C(=O)Nc2nnnn2C)c1Cl | Viola tricolor | 0 (no)

* * *

Tested on: Stellaria media
Procedure summary: Pre-emergence herbicidal action, STEME
Format: in vivo
Test parameters: dosage 320 g/ha, scored visually after 3 weeks vs untreated controls (100% = plants have died)
Measured herbicidal activity STEME of individual entries

Compound | herbicidal activity STEME [%]
CCn1nnnc1NC(=O)c1ccc(C)c(CSC)c1Cl | 80
CCCn1nnnc1NC(=O)c1ccc(C(F)F)c(CS(C)(=O)=O)c1SC | 100
Cn1nnnc1NC(=O)c1ccc(C(F)(F)F)c(CS(C)(=O)=O)c1C(F)(F)C(F)(F)F | 100
CCn1nnnc1NC(=O)c1ccc(C(F)(F)F)c(CSCCOC)c1Cl | 100
Cn1nnnc1NC(=O)c1ccc(Cl)c(CS(C)(=O)=O)c1Cl | 90
CCn1nnnc1NC(=O)c1ccc(C(F)F)c(CSC)c1SC | 100
CCCn1nnnc1NC(=O)c1ccc(C(F)(F)F)c(CS(C)(=O)=O)c1Cl | 90
CSCc1c(C(F)(F)F)ccc(C(=O)Nc2nnnn2C)c1Cl | 100
CCS(=O)(=O)Cc1c(C(F)F)ccc(C(=O)Nc2nnnn2C)c1Cl | 100
CSCc1c(C(F)(F)F)ccc(C(=O)Nc2nnnn2C)c1C | 100
CCn1nnnc1NC(=O)c1ccc(C(F)(F)F)c(CSC)c1SC | 100
CCCn1nnnc1NC(=O)c1ccc(C(F)(F)F)c(C[S+](C)[O-])c1Cl (stereo not drawn) | 100
Cn1nnnc1NC(=O)c1ccc(C(F)(F)F)c(CSC2CC2)c1Cl | 100
CCSCc1c(C(F)(F)F)ccc(C(=O)Nc2nnnn2CC)c1Cl | 100
Cn1nnnc1NC(=O)c1ccc(C(F)(F)F)c(C[S+]([O-])CC(F)(F)F)c1Cl (racemic) | 100
Cn1nnnc1NC(=O)c1ccc(C(F)(F)F)c(C[S+](C)[O-])c1Cl (racemic) | 90
CCCn1nnnc1NC(=O)c1ccc(C(F)(F)F)c(CSC)c1Cl | 100
CCn1nnnc1NC(=O)c1ccc(C(F)(F)F)c(C[S+](C)[O-])c1Cl (stereo not drawn) | 100

* * *

Test system: Setaria viridis
Procedure summary: Post-emergence herbicidal action, SETVI
Assay type: in vivo
Parameters: key: % herbicidal action vs untreated; 100 = plants died, 0 = like control
Test parameters: Dosage 80 g/ha

Compound | herbicidal action SETVI
CCCn1nnnc1NC(=O)c1ccc(C(F)F)c(CS(=O)(=O)CC)c1Cl | 100
CSc1c(C(=O)Nc2nnnn2C)ccc(C(F)F)c1C[S+](C)[O-] (centres unmarked) | 100
CCn1nnnc1NC(=O)c1ccc(C(F)F)c(C[S+](C)[O-])c1C (centres unmarked) | 90
CCCn1nnnc1NC(=O)c1ccc(C(F)(F)F)c(CSCC)c1C | 90
COc1c(C(=O)Nc2nnnn2C)ccc(Cl)c1C[S+](C)[O-] (centres unmarked) | 80

* * *

Tested on: Amaranthus retroflexus
Procedure summary: Post-emergence herbicidal action, AMARE
Assay type: in vivo
Set-up: key: % herbicidal action vs untreated; 100 = plants died, 0 = like control
Test parameters: post-emergence, dosage 80 g/ha

Compound | Herbicidal action against AMARE
CCS(=O)(=O)Cc1c(C(F)F)ccc(C(=O)Nc2nnnn2C)c1S(=O)(=O)CC [Example 1-229] | 80
COc1c(C(=O)Nc2nnnn2C)ccc(C(F)(F)F)c1CS(C)(=O)=O [Example 1-136] | 90
Cn1nnnc1NC(=O)c1ccc(C(F)(F)F)c(CS(C)(=O)=O)c1S(C)(=O)=O [Example 1-199] | 80
CCCn1nnnc1NC(=O)c1ccc(C(F)F)c(CS(C)(=O)=O)c1C [Example 3-109] | 100
CCCn1nnnc1NC(=O)c1ccc(C)c(CS(C)(=O)=O)c1Cl [Example 3-289] | 90
CCCn1nnnc1NC(=O)c1ccc(I)c(CSC)c1Cl [Example 3-362] | 80
CCCn1nnnc1NC(=O)c1ccc(C)c(CSC)c1Cl [Example 3-287] | 100
COc1c(C(=O)Nc2nnnn2C)ccc(C(F)(F)F)c1CSC [Example 1-134] | 100
CCCn1nnnc1NC(=O)c1ccc(C(F)(F)F)c(CS(C)(=O)=O)c1S(C)(=O)=O [Example 3-199] | 80

* * *

Tested on: Setaria viridis
Procedure summary: Post-emergence herbicidal action, SETVI
Type: in vivo
Parameters: key: % herbicidal action vs untreated; 100 = plants died, 0 = like control
Test parameters: Dosage 80 g/ha
Description: [table] 2. […] After the test plants have been left to stand in the greenhouse under optimal growth conditions for about 3 weeks, the action of the preparations is assessed visually in comparison to untreated controls (herbicidal action in percent (%): 100% activity=the plants have died, 0% activity=like control plants). […]
Measured herbicidal action SETVI of individual entries
Reported property: herbicidal action SETVI

Compound | Reported property | Obs value
CCCn1nnnc1NC(=O)c1ccc(C(F)(F)F)c(CS(C)(=O)=O)c1SC | herbicidal action SETVI | 90
Cc1c(C(=O)Nc2nnnn2C)ccc(C(F)(F)F)c1CS(C)(=O)=O | herbicidal action SETVI | 100
COc1c(C(=O)Nc2nnnn2C)ccc(C(F)(F)F)c1C[S+](C)[O-] (centres unmarked) | herbicidal action SETVI | 100
CCn1nnnc1NC(=O)c1ccc(C(F)(F)F)c(C[S+](C)[O-])c1SC (centres unmarked) | herbicidal action SETVI | 90
CCCn1nnnc1NC(=O)c1ccc(S(C)(=O)=O)c(CS(C)(=O)=O)c1C | herbicidal action SETVI | 90
CCCn1nnnc1NC(=O)c1ccc(C(F)(F)F)c(CSCC(F)(F)F)c1Cl | herbicidal action SETVI | 80
CCn1nnnc1NC(=O)c1ccc(C(F)F)c(CSC)c1Cl | herbicidal action SETVI | 100
Cn1nnnc1NC(=O)c1ccc(C(F)(F)F)c(CS(C)(=O)=O)c1Br | herbicidal action SETVI | 90
